Please go through the items and note down their self-splicing fitness (ln).
# assay.protocol: self-splicing fitness, log relative to wild type (ln ratio); higher = more splicing; Tetrahymena group I intron in knt gene, E. coli kanamycin selection, DiMSum; sequences stand for … in CUCUCU…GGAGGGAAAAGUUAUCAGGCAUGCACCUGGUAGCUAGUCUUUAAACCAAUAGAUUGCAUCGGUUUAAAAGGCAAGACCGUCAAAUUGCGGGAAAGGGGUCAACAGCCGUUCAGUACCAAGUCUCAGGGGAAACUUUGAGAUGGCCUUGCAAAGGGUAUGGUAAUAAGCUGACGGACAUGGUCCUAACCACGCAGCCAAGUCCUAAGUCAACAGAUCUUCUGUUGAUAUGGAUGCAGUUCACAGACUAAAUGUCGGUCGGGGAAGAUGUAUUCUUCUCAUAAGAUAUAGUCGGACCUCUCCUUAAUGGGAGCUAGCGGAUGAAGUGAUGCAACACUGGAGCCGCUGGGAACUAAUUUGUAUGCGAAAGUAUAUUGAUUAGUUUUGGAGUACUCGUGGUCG;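 also: selection with 25 µg/mL kanamycin versus none on LB agar overnight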
# setup.conditions: 30 °C

Please fill in: self-splicing fitness (ln) reported for UCUCAGCAAUAUUACGAGCC = -1.14

self-splicing fitness (ln) in this record for AUACAGCAAUAUUACGAUAG : -2.57

Reported self-splicing fitness (ln) for CUGAAGCAAUAUUACGGUGC was -2.89

Please fill in: self-splicing fitness (ln) reported for GGACAGCAAUAUUACGGUUU = -2.12

// self-splicing fitness (ln) lookup, sequence = UCCCAGCAAUAUUACGAGAG , result: -3.41

The value of self-splicing fitness (ln) measured for the sequence CCACAGCAAUAUUACGGUCC turned out to be -2.75

self-splicing fitness (ln) reported for this sequence GUCCAGCAAUAUUACGUUUA : -0.851

Briefly, self-splicing fitness (ln) measured for UAAUAGCAAUAUUACGGCGG : -1.27

Per the records, this sequence ( UGCAAGCAAUAUUACGUAAA ) has self-splicing fitness (ln) equal to -1.9

Per the records, this sequence ( CUUCAGCAAUAUUACGUAUG ) has self-splicing fitness (ln) equal to -0.871

Item: UCUGAGCAAUAUUACGGGCG | self-splicing fitness (ln): -1.33

The sequence listed as GCUUAGCAAUAUUACGUGCU shows self-splicing fitness (ln) equal to -2.78

Consider CUAUAGCAAUAUUACGCAGG . Its measured self-splicing fitness (ln) is -2.75

// recorded self-splicing fitness (ln) for GGCCAGCAAUAUUACGCCGU : -2.39

// self-splicing fitness (ln) value for AGGCAGCAAUAUUACGAUGC : -3.17

The recorded self-splicing fitness (ln) for UCGUAGCAAUAUUACGCCUA is -0.658

Input AGAUAGCAAUAUUACGGCUC . Output self-splicing fitness (ln): -1.14

self-splicing fitness (ln) reported for this sequence GCCAAGCAAUAUUACGUGAC : -1.89

ACUAAGCAAUAUUACGAGGG yielded self-splicing fitness (ln) of -2.55

So for GCUAAGCAAUAUUACGCUGA , the logged self-splicing fitness (ln) turned out to be -1.48

# self-splicing fitness (ln) of CACAAGCAAUAUUACGAAGG = -1.45

Measured self-splicing fitness (ln) of UGCGAGCAAUAUUACGCUGC : -3.09

Given item AACUAGCAAUAUUACGAGCU , the value recorded as its self-splicing fitness (ln) is -1.5

The sequence listed as CAUCAGCAAUAUUACGGACU shows self-splicing fitness (ln) equal to -3.78

Quick note, self-splicing fitness (ln) for CGUUAGCAAUAUUACGUCAU landed at -2.58

get_value(item= CGACAGCAAUAUUACGCUGG , readout=self-splicing fitness (ln)) returns -3.13

self-splicing fitness (ln) reported for this sequence GGCAAGCAAUAUUACGUUAA : -1.09

self-splicing fitness (ln) in this record for UGCCAGCAAUAUUACGCCAA : -1.24

Sure, the documented self-splicing fitness (ln) for UGAAAGCAAUAUUACGCCCA is -0.309

Please fill in: self-splicing fitness (ln) reported for GCUCAGCAAUAUUACGUUAA = -1.32

response.value for CAUAAGCAAUAUUACGCCGC (field: self-splicing fitness (ln)) = -2.82

GET /value?item= UAUCAGCAAUAUUACGUCUG &field=self-splicing fitness (ln) returns -0.947

Summary for this sequence, CUAGAGCAAUAUUACGCGGC : self-splicing fitness (ln) is -0.707

Kindly note the recorded self-splicing fitness (ln) for GAAAAGCAAUAUUACGCCUA , which is -1.15

---

# assay.protocol: self-splicing fitness, log relative to wild type (ln ratio); higher = more splicing; Tetrahymena group I intron in knt gene, E. coli kanamycin selection, DiMSum; sequences stand for … in CUCUCU…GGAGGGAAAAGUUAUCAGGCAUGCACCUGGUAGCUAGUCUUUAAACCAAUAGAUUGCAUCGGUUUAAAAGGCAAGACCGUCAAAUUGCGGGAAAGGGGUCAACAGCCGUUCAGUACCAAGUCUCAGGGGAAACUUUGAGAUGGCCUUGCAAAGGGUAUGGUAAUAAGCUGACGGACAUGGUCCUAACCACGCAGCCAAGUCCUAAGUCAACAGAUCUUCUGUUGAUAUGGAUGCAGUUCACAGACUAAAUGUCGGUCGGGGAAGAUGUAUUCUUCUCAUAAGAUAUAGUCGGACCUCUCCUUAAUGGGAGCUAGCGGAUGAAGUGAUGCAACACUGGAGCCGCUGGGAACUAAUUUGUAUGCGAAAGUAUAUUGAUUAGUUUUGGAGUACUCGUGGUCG
# setup.conditions: 37 °C
experimental.readout: self-splicing fitness (ln)

For ACGCAGCAAUAUUACGAACG the sequence record lists self-splicing fitness (ln) as -0.234

Item: AAUGAGCAAUAUUACGAAGU | self-splicing fitness (ln): -2.16

The measured self-splicing fitness (ln) associated with GAUUAGCAAUAUUACGGUUC reads -1.96

Input UAGUAGCAAUAUUACGUCAA . Output self-splicing fitness (ln): -2.44

What the record says about AGCGAGCAAUAUUACGGUUA : self-splicing fitness (ln) is -1.9

For CGGUAGCAAUAUUACGUGGG the sequence record lists self-splicing fitness (ln) as -3.11

UUGGAGCAAUAUUACGAAAG yielded self-splicing fitness (ln) of -2.08

Short answer for GCAUAGCAAUAUUACGCUCC : self-splicing fitness (ln) was -1.94

The reported value for AGUGAGCAAUAUUACGGUAA in terms of self-splicing fitness (ln) is -1.43

Recorded result, CUAUAGCAAUAUUACGCCAU , self-splicing fitness (ln): -2.45

Recorded result, GCACAGCAAUAUUACGUGGA , self-splicing fitness (ln): -0.281

For record ACUCAGCAAUAUUACGUUUG the listed self-splicing fitness (ln) is -1.94

Entry AGGCAGCAAUAUUACGGAUA , self-splicing fitness (ln) reported as -2.11

So, GACUAGCAAUAUUACGGCGG ? Its self-splicing fitness (ln) was -2.14

Input AUGGAGCAAUAUUACGCUGU . Output self-splicing fitness (ln): -1.37

Recorded self-splicing fitness (ln) (sequence UAUCAGCAAUAUUACGUUUU ): -1.4

Summary for this sequence, GGUUAGCAAUAUUACGCUGA : self-splicing fitness (ln) is -2.24

Record summary for GAAUAGCAAUAUUACGCGUG : reported self-splicing fitness (ln) = -0.747

Short answer for CACCAGCAAUAUUACGAGCA : self-splicing fitness (ln) was -1.55

Data point: ACAAAGCAAUAUUACGAGGA ; self-splicing fitness (ln) = -2.07

The sequence AGAGAGCAAUAUUACGUACC showed self-splicing fitness (ln) equal to -0.0438

UAGCAGCAAUAUUACGAUGA yielded self-splicing fitness (ln) of -0.42

Value of self-splicing fitness (ln) reported for the sequence AAGAAGCAAUAUUACGCUAA is -0.682

Lab book: self-splicing fitness (ln) of UAUUAGCAAUAUUACGUUGU noted as -3.04

# self-splicing fitness (ln) of AGUUAGCAAUAUUACGUUAC = -2.69

// self-splicing fitness (ln) lookup, sequence = CUUAAGCAAUAUUACGAAGU , result: -2.19

Reported self-splicing fitness (ln) for CACAAGCAAUAUUACGAAGG was -0.993

Lookup result for UACGAGCAAUAUUACGUGCA ; measured self-splicing fitness (ln): -1.32

Form field self-splicing fitness (ln), entry GUUUAGCAAUAUUACGCUGA : -1.6

For this sequence ( AUAGAGCAAUAUUACGUGGC ), measured self-splicing fitness (ln) is -2.7

Reported self-splicing fitness (ln) for UGCAAGCAAUAUUACGCACG was -0.955

Field self-splicing fitness (ln) (entry GGGUAGCAAUAUUACGUGGC ) reads -2.64

self-splicing fitness (ln) reading for UCACAGCAAUAUUACGGACU : -2.16

Record CCAGAGCAAUAUUACGUGUC , field self-splicing fitness (ln): -2.29
